test: Therapeutic index for the compound was determined (IC50/EC50); conditions: read-out: TI
We begin with a simple list: items and their reported selectivity ratio.
QUANTITY NAME: selectivity ratio

>>> print(df.to_string())
                                   compound      quantity_name  operator  observed_measurement
0       Nc1ccn([C@H]2CC[C@@H](CO)O2)c(=O)n1  selectivity ratio         =                   152
1  Nc1nc(N)c2ncn(C3C=CC(CO)C3)c2n1 (stereo not given)  selectivity ratio         >                  26.6
2  Nc1nc2c(ncn2[C@H]2C=C[C@@H](CO)C2)c(=O)[nH]1  selectivity ratio         =                   220
3  Nc1nc(N)c2ncn(C3CCC(CO)C3)c2n1 (stereo not given)  selectivity ratio         >                   5.9
4  Nc1nc(Cl)c2ncn(C3C=CC(CO)C3)c2n1 (stereo not given)  selectivity ratio         =                  17.3
